biological target: Indoleamine 2,3-dioxygenase 1 (Homo sapiens, UniProt P14902)
Sequence (P14902 whole entry): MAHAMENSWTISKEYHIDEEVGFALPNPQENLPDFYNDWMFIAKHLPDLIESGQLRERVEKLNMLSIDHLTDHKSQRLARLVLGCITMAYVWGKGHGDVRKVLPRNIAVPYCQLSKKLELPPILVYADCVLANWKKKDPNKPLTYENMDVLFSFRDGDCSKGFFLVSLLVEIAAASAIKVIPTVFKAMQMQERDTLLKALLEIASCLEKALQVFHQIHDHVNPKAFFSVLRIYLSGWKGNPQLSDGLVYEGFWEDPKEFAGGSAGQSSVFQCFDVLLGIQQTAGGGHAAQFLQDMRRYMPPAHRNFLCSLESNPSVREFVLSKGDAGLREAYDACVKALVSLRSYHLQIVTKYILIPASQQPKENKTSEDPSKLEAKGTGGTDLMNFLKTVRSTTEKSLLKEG
Result Type: pIC50
Give bare numbers, as −log10 of the molar value.

Item: NS(=O)(=O)N1CCC(CSc2nonc2C(=NO)Nc2ccc(F)c(Br)c2)C1 (stereo unspecified) | pIC50: 6.97
